Provenance of the data: patent US20230295313A1

measured.target: biotin-labeled human IL1RAP (human) (UniProt Q9NPH3)
Sequence (Q9NPH3 21-367 limits assumed): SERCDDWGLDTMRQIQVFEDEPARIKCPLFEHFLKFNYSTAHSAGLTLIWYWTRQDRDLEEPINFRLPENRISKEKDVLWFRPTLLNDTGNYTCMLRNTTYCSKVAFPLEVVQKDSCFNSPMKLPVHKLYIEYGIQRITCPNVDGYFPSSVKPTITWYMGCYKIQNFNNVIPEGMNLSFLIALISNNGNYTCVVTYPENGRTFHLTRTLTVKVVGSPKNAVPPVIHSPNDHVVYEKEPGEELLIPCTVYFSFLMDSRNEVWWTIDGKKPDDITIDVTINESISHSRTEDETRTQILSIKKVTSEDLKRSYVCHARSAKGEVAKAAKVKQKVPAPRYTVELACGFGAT
assay.notes: competition ELISA; competitor: capture mAb063 coated; biotin-hIL1RAP
result.type: % inhibition (%)
Please state the figure in %; there is no need to write the unit.

Field: example entries. Status: answers known.
binder	% inhibition (%)
mAb063 (antibody, V domains shown) VH: EVQLQQSGPELVKPGASVKISCKASGYTFTDYYMNWVKQSHGKSLEWIGHINPNSGSTTYTEKFKDKATLTVDKSSSTAYMELRSLTSDDSAVYYCVRRIGKNWHCDVWGTGTTVTVSS VL: DIVLTQSPASLAVSLGQRATISCRASESVNFHGTHLMHWYQQKPGQAPKLLIYAASNLDSGVPARFSGSGSETDFTLNIHPVEEEDAATYFCQQSIEDPFTFGSGTYLEIK	96
murine mAb001 (antibody, V domains shown) VH: QVQLQQPGAELVRPGSSVKLSCKASGYTFTSYWMDWVKQRPGQGLEWIGNIYPSDSKTHYNQKFKDKATLTVDKSSSTAYMQLSSLTSEDSAVYYCARDYYGSIGMDYWGQGTSVTVSS VL: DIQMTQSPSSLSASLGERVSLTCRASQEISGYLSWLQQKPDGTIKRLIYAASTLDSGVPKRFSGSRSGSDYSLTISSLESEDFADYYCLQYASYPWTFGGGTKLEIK	75

# input State the recorded % inhibition for this entry: murine mAb048 (antibody, V domains shown) VH: QVQLQQPGADLVKPGASVKLSCKAYGYTFFSYWMHWVRQRPGQGLEWIGMIHPNSGTTNNNEKFKSKATLTVDKSFSTAYMQLSSLTSEDSAVYYCARGYSNYDFDYWGQGTILTVSS VL: DIKMTQFPSSMYASLGERVTITCKASQDINTYLIWIQQKPGKSPKTLIYRANRLADGVPSRFSGSGSGQDSSLTISSLEHEDMGIYYCLQYDEFPYTFGGGTKLEIK
# output 86

# input And the next one, murine mAb016 (antibody, V domains shown) VH: QVQLQQPGAELVRPGSSVKLSCKASGYTFTSYWMDWVKQRPGQGLEWIGNIYPSDSATHYNQKFKDKATLTIDKSSSTAYMQLSSLTSEDSAVYYCARDYYGSIGMDSWGQGTSVTVSS VL: DIQMTQSPSSLSASLGERVSLTCRASQEISDYLSWLQQKPDGTIKRLIYAASTLDSGVPKRFSGSRSGSDYSLTISSLESEDFADYYCLQYASFPWTFGGGTKLEIK ?
# output 80

# input And the next one, murine mAb117 (antibody, V domains shown) VH: QAYLQQSGAELVRPGASVKMSCKASGYTFTSYNMHWVKQSPRQGLEWVGVFYLGNGDTSYNEKFKGKATLTVDKSSSTAYMQLSSLTSEDSAVYFCARPGGYANWYFDVWGTGTTVTVSS VL: DIVMTQSQKFMSTSVGDWVSVTCKASQNVGTEVSWYQQKPGQSPNTLIYSASYRHSGVPDRFTGSGSGTEFTLTITNVQSEDLADYFCQQYNSFPLTFGAGTKLDLK ?
# output 87

# input And the next one, murine mAb067 (antibody, V domains shown) VH: QVKLHQSGAELAKPGASVKMSCKASGYTFNSYWIHWVKQRPGQGLEWIGYNNPTSGYSEYNQKFTDKATLSADKSSSTAYMQLSSLTSEDSAVYYCVREYGDLFAYWGQGTLVTVSA VL: NIVMTQSPKSMSMSVGERVTLSCKASENVGYSVSWFQQKPDQSPKLLIYGASNRYTGVPDRFTGSGSATDFTLTISTVQAEDLADYHCGQIYIYPYTFGGGTKLEIK ?
# output 72
